Tested on: RARa:RXR (NR concentration 270 nM, RXRa partner concentration 90 nM)
experiment: PBM binding z-score (relative to random genomic background probes); higher = stronger binding; sequences stand for … in GC…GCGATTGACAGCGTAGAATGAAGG
Respond with class 1 for PBM binding z-score values of 1 and above, class 0 for values below.

[[record]]
sequence_record = "CAAACTAGGTCAAGAGTTCAAAGTCCGCTTCCCG"
cat = "class 1"

[[record]]
sequence_record = "CGAACTAGGTCAAGGACAATGAATCTCCGCACGC"
cat = "class 1"

[[record]]
sequence_record = "CGAACTAGGTAATCCAGGACAGTGAATACATTGA"
cat = "class 0"

[[record]]
sequence_record = "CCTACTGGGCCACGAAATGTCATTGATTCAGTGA"
cat = "class 0"

[[record]]
sequence_record = "CGAACTTGGTCATCCAGGACAGTGAATACATTGA"
cat = "class 0"

[[record]]
sequence_record = "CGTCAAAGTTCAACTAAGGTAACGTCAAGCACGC"
cat = "class 1"

[[record]]
sequence_record = "CCTACTGGGCCATCAAGTCATTGATATCAACGTT"
cat = "class 0"

[[record]]
sequence_record = "ATCGAAAGGTCGACGAGGTGAGCATACACCGTTT"
cat = "class 1"

[[record]]
sequence_record = "GCTAGCAGGCCATTTGGGTCATTCAATGACGGGC"
cat = "class 0"

[[record]]
sequence_record = "ATCTCGAGGTAAGACTCAGTTCAGTGAAGAACGC"
cat = "class 0"

[[record]]
sequence_record = "TTACCAATGTGAAAGGTCGTTGATGCACGCCTTG"
cat = "class 1"

[[record]]
sequence_record = "AGAACGAGGGCAATGAGGTGATAGCACGGGTGGC"
cat = "class 0"

[[record]]
sequence_record = "TCTAGTTGGTCACCGAGGTCACACACGACGGGTA"
cat = "class 1"

[[record]]
sequence_record = "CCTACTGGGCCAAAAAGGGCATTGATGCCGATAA"
cat = "class 0"

[[record]]
sequence_record = "CGTCCAAGGTCAGAGAGGTCTGTGAATGCCGAGT"
cat = "class 1"

[[record]]
sequence_record = "CGTCCAAGGTCATAGTAGGTCAGTGAAGACAGAT"
cat = "class 1"

[[record]]
sequence_record = "ATCTCTAGGTAGAGATAGTTCAGTGAATGCAAAT"
cat = "class 0"

[[record]]
sequence_record = "ACTAGCAGGCCAATGGTCACTCAAGATTAGTCCG"
cat = "class 0"

[[record]]
sequence_record = "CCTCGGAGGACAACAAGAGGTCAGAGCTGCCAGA"
cat = "class 1"

[[record]]
sequence_record = "TCTTGTAGATCAAAGGTTAACAAAGCCGAAGCCT"
cat = "class 1"

[[record]]
sequence_record = "CCTACTGGACCAAAAAGGTCATTGATGCCGATAA"
cat = "class 1"

[[record]]
sequence_record = "GCGCGGAGGACAAGGTCAGAGCTTTGTCCGTAGA"
cat = "class 1"

[[record]]
sequence_record = "CATACAGGGCCAGCTAGGCCAGAGTAGGGACGGC"
cat = "class 0"

[[record]]
sequence_record = "TCTCGTAGATCAACAGGAGGTTAAGAAAGATCGA"
cat = "class 1"

[[record]]
sequence_record = "TCATATAGGTAAAGGTGATAGTCGAACGATATGA"
cat = "class 0"

[[record]]
sequence_record = "CCGACTGGGGCAAAGGTTTCCATACTCAGTACGA"
cat = "class 0"

[[record]]
sequence_record = "GATACAGGGTCAGCTAGATGCCAGAGTATGGAAA"
cat = "class 1"

[[record]]
sequence_record = "ACAATGAGGTTACCAAAGATCAGGGAAACGCTTG"
cat = "class 1"

[[record]]
sequence_record = "TCGATTAGGTTACCAATGGGGCATTCAGCTTTCT"
cat = "class 0"

[[record]]
sequence_record = "AACTCTAGGTAAGACTCAGTTCAGTGAAGAACGC"
cat = "class 0"

[[record]]
sequence_record = "CAGCCTAGGTCAGCGCCAGTATAGGAGGAACGTT"
cat = "class 1"

[[record]]
sequence_record = "ATATGTAGGTTAGCTGGTGTCATTCAGACTAGGC"
cat = "class 1"

[[record]]
sequence_record = "ATCTCTAGGTAAAAGTTCAGTGATTCCCGAGGAT"
cat = "class 1"

[[record]]
sequence_record = "TAGCCTAGGTCATGCGGGCCAGTATGGTGTCGGC"
cat = "class 1"

[[record]]
sequence_record = "CCTAACGGGTCAAGGTTATAGCACGGGTGGTACG"
cat = "class 1"

[[record]]
sequence_record = "AACTCTAGGTAAAGTTCAGTGAAAGATCGATAGA"
cat = "class 1"

[[record]]
sequence_record = "CGAACTAGGTCATCCAGCACAGTGAATACATTGA"
cat = "class 1"

[[record]]
sequence_record = "TGAATGAGGTCATAAGATCAGGGAACGTTGCAAA"
cat = "class 1"

[[record]]
sequence_record = "TCTAGTGGGTCACGGAGGTCACACACGACGGGTA"
cat = "class 1"

[[record]]
sequence_record = "AGAACGAGGTCAATGAGTTGATAGCACGGGTGGC"
cat = "class 1"

[[record]]
sequence_record = "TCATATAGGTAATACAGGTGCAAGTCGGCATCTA"
cat = "class 0"

[[record]]
sequence_record = "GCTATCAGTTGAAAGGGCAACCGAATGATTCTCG"
cat = "class 1"

[[record]]
sequence_record = "ACTGTTAGTTGACTTAGGGCAACCGATACGACGC"
cat = "class 0"

[[record]]
sequence_record = "TAGCCTAGGTCAGATCGGGTCAGTATACGCTATA"
cat = "class 1"

[[record]]
sequence_record = "CAAACTAGGTCACAGATGTCAAAGTCCGTGCGTA"
cat = "class 1"

[[record]]
sequence_record = "CCTACTGGGCCATCAGGACATTGATATCAACGTT"
cat = "class 0"

[[record]]
sequence_record = "CCTAGCAGGCCAATCTGGATCACTCAAGGCTTGA"
cat = "class 0"

[[record]]
sequence_record = "CCTAGCAGGACAGGGTCACTCAAGCATTTCGCTT"
cat = "class 1"

[[record]]
sequence_record = "ATATGTAGGTTAAGGGTCATTTAGGTTGGTTCGC"
cat = "class 1"

[[record]]
sequence_record = "GATACAGGGTAAAGGCCAGAGTACGCGTATTGAT"
cat = "class 0"

[[record]]
sequence_record = "ATCTCTAGGTAGCAAGTTCAGTGAAAGAGAGGAC"
cat = "class 0"


Source listed as the supplement of paper PMC6555819.
